Assay procedure: Cell Viability - Jurkat (AID 426);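 note: potency is the fitted concentration of half-maximal effect; cells exposed to compound for 40 hours at 37 °C before ATP read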
Conditions: qHTS
Records with an inconclusive call do not appear. Activity calls are given as the source filed them.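 Rule for the calls: active = dose-dependent loss of cell ATP signal giving a full or clear fitted curve, ranked by lower potency value; inconclusive = weak partial curve or response only at the top dose; inactive = no loss of viability signal.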
Metric name: Potency

• CCCCC(CC)COC(=O)c1ccc(N(C)C)cc1 (configuration not stated) = > 92 µM (inactive)
• OC[C@H]1O[C@@H]2O[C@H]3[C@H](O)[C@@H](O)[C@@H](O[C@H]4[C@H](O)[C@@H](O)[C@@H](O[C@H]5[C@H](O)[C@@H](O)[C@@H](O[C@H]6[C@H](O)[C@@H](O)[C@@H](O[C@H]7[C@H](O)[C@@H](O)[C@@H](O[C@H]8[C@H](O)[C@@H](O)[C@@H](O[C@H]1[C@H](O)[C@H]2O)O[C@@H]8CO)O[C@@H]7CO)O[C@@H]6CO)O[C@@H]5CO)O[C@@H]4CO)O[C@@H]3CO = > 92 µM (inactive)
